- RUN DESCRIPTION: amyloid nucleation score (Sup35N fusion, yeast selection) (log enrichment); library NNK3; higher = more nucleation; inactive = no reads after selection;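 note: zero at mode of non-aggregating sequences after 7 days selection at 30°C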
Threshold check on amyloid nucleation score: at or above 1 gives MET, strictly below gives NOT MET.

- SEQUENCE TEXT: "TTRLNFENVNVTLLNYKSMG"
  GROUP: "MET"
- SEQUENCE TEXT: "MNYVIIFTWN"
  GROUP: "MET"
- SEQUENCE TEXT: "TQFISLSGGRTHLSGFLVFG"
  GROUP: "NOT MET"
- SEQUENCE TEXT: "DPVMTACNALMTSVS"
  GROUP: "NOT MET"
- SEQUENCE TEXT: "SLCLVSLLCFSFRCNDGKWR"
  GROUP: "MET"

---

- RUN DESCRIPTION: amyloid nucleation score (Sup35N fusion, yeast selection) (log enrichment); library NNK3; higher = more nucleation; inactive = no reads after selection
MEASUREMENT TYPE: amyloid nucleation score

- SUBSTANCE: "RHVNEGLVRGFNPSRTLKGK"
  MEASUREMENT TYPE: "amyloid nucleation score"
  RECORDED RESULT: "inactive"
- SUBSTANCE: "WLVYVVLRM"
  MEASUREMENT TYPE: "amyloid nucleation score"
  RECORDED RESULT: "inactive"
- SUBSTANCE: "VYSFTAKHRYSWFVCNDGVK"
  MEASUREMENT TYPE: "amyloid nucleation score"
  RECORDED RESULT: "inactive"
- SUBSTANCE: "YCSIGLLCTSCIASVGIWVI"
  MEASUREMENT TYPE: "amyloid nucleation score"
  RECORDED RESULT: "inactive"
- SUBSTANCE: "VCRFYIGFTYWLSCC"
  MEASUREMENT TYPE: "amyloid nucleation score"
  RECORDED RESULT: "inactive"
- SUBSTANCE: "EQLISTSPLCVFIGFLVVLY"
  MEASUREMENT TYPE: "amyloid nucleation score"
  RECORDED RESULT: "inactive"
- SUBSTANCE: "LVVIDTIIHCLFKTAQCAWF"
  MEASUREMENT TYPE: "amyloid nucleation score"
  RECORDED RESULT: "inactive"
- SUBSTANCE: "IYLDFNASWLACNKLICLRN"
  MEASUREMENT TYPE: "amyloid nucleation score"
  RECORDED RESULT: 1.01
- SUBSTANCE: "TAESKRH"
  MEASUREMENT TYPE: "amyloid nucleation score"
  RECORDED RESULT: "inactive"
- SUBSTANCE: "LFTLWVMRFEFWYSCFFVSV"
  MEASUREMENT TYPE: "amyloid nucleation score"
  RECORDED RESULT: "inactive"
- SUBSTANCE: "RMENWLRCL"
  MEASUREMENT TYPE: "amyloid nucleation score"
  RECORDED RESULT: "inactive"
- SUBSTANCE: "PAADHLAKRCSMICSSSFAL"
  MEASUREMENT TYPE: "amyloid nucleation score"
  RECORDED RESULT: "inactive"
- SUBSTANCE: "VHFLILETFKQNMWGYDLTL"
  MEASUREMENT TYPE: "amyloid nucleation score"
  RECORDED RESULT: "inactive"
- SUBSTANCE: "MTYCRVFRNRASDKPYMMRL"
  MEASUREMENT TYPE: "amyloid nucleation score"
  RECORDED RESULT: "inactive"
- SUBSTANCE: "GWAMTWNDVYLSYSIYSHSK"
  MEASUREMENT TYPE: "amyloid nucleation score"
  RECORDED RESULT: 0.514
- SUBSTANCE: "MTVRETLYWVRS"
  MEASUREMENT TYPE: "amyloid nucleation score"
  RECORDED RESULT: "inactive"
- SUBSTANCE: "PQADLVRFAMCRRAMNLVPW"
  MEASUREMENT TYPE: "amyloid nucleation score"
  RECORDED RESULT: "inactive"
- SUBSTANCE: "FWMCVSVSARWAPTSLGFGS"
  MEASUREMENT TYPE: "amyloid nucleation score"
  RECORDED RESULT: "inactive"
- SUBSTANCE: "NGVCTVNVTFCYMV"
  MEASUREMENT TYPE: "amyloid nucleation score"
  RECORDED RESULT: 2.23
- SUBSTANCE: "IRPSHYIYLRTN"
  MEASUREMENT TYPE: "amyloid nucleation score"
  RECORDED RESULT: "inactive"
- SUBSTANCE: "DIPAVINVMGSVYDGR"
  MEASUREMENT TYPE: "amyloid nucleation score"
  RECORDED RESULT: "inactive"
- SUBSTANCE: "RIDRSYACALSWHVLYVNR"
  MEASUREMENT TYPE: "amyloid nucleation score"
  RECORDED RESULT: 0.436
- SUBSTANCE: "CVSIKIASPPF"
  MEASUREMENT TYPE: "amyloid nucleation score"
  RECORDED RESULT: 0.43
- SUBSTANCE: "PFFDFSDINITEPE"
  MEASUREMENT TYPE: "amyloid nucleation score"
  RECORDED RESULT: -0.306
- SUBSTANCE: "VYSTSDAEVIVSVSRRGDFA"
  MEASUREMENT TYPE: "amyloid nucleation score"
  RECORDED RESULT: "inactive"
- SUBSTANCE: "QIKKAINHHKYFW"
  MEASUREMENT TYPE: "amyloid nucleation score"
  RECORDED RESULT: "inactive"
- SUBSTANCE: "YSVPRKSIICIKFDGFWRCV"
  MEASUREMENT TYPE: "amyloid nucleation score"
  RECORDED RESULT: 1.96
- SUBSTANCE: "HQVNVLWQVYILAFSLTSRH"
  MEASUREMENT TYPE: "amyloid nucleation score"
  RECORDED RESULT: "inactive"
- SUBSTANCE: "LRRDCFLDRSSLRHPVWEWL"
  MEASUREMENT TYPE: "amyloid nucleation score"
  RECORDED RESULT: "inactive"
- SUBSTANCE: "QVFLRMKRRICVPLFYLACN"
  MEASUREMENT TYPE: "amyloid nucleation score"
  RECORDED RESULT: 0.422
- SUBSTANCE: "FWGLSAMSLEVRGWRMGGEL"
  MEASUREMENT TYPE: "amyloid nucleation score"
  RECORDED RESULT: 0.196
- SUBSTANCE: "KWSNQGRCEHSVNMFHREWR"
  MEASUREMENT TYPE: "amyloid nucleation score"
  RECORDED RESULT: 1.64
- SUBSTANCE: "VGGQISRDNGCLSILMSFDN"
  MEASUREMENT TYPE: "amyloid nucleation score"
  RECORDED RESULT: "inactive"
- SUBSTANCE: "DQECRA"
  MEASUREMENT TYPE: "amyloid nucleation score"
  RECORDED RESULT: "inactive"
- SUBSTANCE: "SSMSSTSALLYMHDNFWCAI"
  MEASUREMENT TYPE: "amyloid nucleation score"
  RECORDED RESULT: "inactive"
- SUBSTANCE: "WAIWAYRTLVESMWGTKIGK"
  MEASUREMENT TYPE: "amyloid nucleation score"
  RECORDED RESULT: "inactive"

The measurements presented in this section are drawn from the supplement of paper PMC12042874.
